Values compiled from ChEMBL document CHEMBL1133561.

Target: GABA-A receptor; anion channel
Assay: Inhibition against Gamma-aminobutyric acid A (GABA-A) receptor
Assay type: protein-complex assay, Rattus norvegicus
pIC50: −log10 of the molar value.
measuredProperty: pIC50

Exercise: Assign pIC50 to the following record: Cc1c(O)noc1CN
Solution: < 4.00

###

Biological target: GABA-A receptor; anion channel
Test: Inhibition of Gamma-aminobutyric acid A (GABA-A) receptor in vitro by whole-cell patch-clamp recording in cultured cerebral cortical neurones
Format: functional, Rattus norvegicus
measuredProperty: IC50 (µM)
Write the answer as a number in µM, unit excluded.

Exercise: Quote GABA-A receptor; anion channel IC50 for entry Oc1noc(C2CCNCC2)c1Cc1ccccc1 .
Solution: 4
